Cited source: ChEMBL document CHEMBL4041524

System Tested: GABA-A receptor; alpha-3/beta-3/gamma-2 (Homo sapiens, UniProt P18507+P28472+P34903)
Assay Procedure: Modulation of recombinant human GABA alpha3beta3gamma2 receptor expressed in HEK293 cells assessed as change in GABA-induced current at -80 mV holding potential preincubated for 3 mins followed by co-administration of GABA by electrophysiology method
Type: cell-based
Measured Parameter: EC50
State the value with its unit after it.

Measured EC50, C#Cc1ccc2c(c1)C(c1ccccn1)=NCc1c(-c3cnco3)ncn1-2 : 205 nM

###

Tested on: Liver
Assay Procedure: Metabolic stability in mouse liver microsomes assessed as compound remaining at 4 uM measured after 30 mins in presence of NADPH by LC-MS/MS analysis
Assay type: ADME, microsome
Test Conditions: 0.5 h
Item-by-item account of Stability
State the value with its unit after it.

Past entries and their recorded results:
{"Structure As Smiles": "C#Cc1ccc2c(c1)C(c1ccccn1)=NCc1c(-c3nc(CC)no3)ncn1-2", "System Tested": "Liver", "Value Reported": "92%"}
{"Structure As Smiles": "C#Cc1ccc2c(c1)C(c1ccccc1F)=NCc1c(-c3cnco3)ncn1-2", "System Tested": "Liver", "Value Reported": "78%"}
{"Structure As Smiles": "C#Cc1ccc2c(c1)C(c1ccccn1)=NCc1c(C(=O)OCC)ncn1-2", "System Tested": "Liver", "Value Reported": "57%"}
{"Structure As Smiles": "C#Cc1ccc2c(c1)C(c1ccccc1)=NCc1c(-c3cnco3)ncn1-2", "System Tested": "Liver", "Value Reported": "73%"}
{"Structure As Smiles": "C#Cc1ccc2c(c1)C(c1ccccn1)=NCc1c(-c3cnco3)ncn1-2", "System Tested": "Liver", "Value Reported": "90%"}

Measured Stability, C#Cc1ccc2c(c1)C(c1ccccc1F)=NCc1c(C(=O)OCC)ncn1-2 : 6.1%

Measured Stability, [2H]C([2H])(C)OC(=O)c1ncn2c1CN=C(c1ccccn1)c1cc(C#C)ccc1-2 : 63%

Measured Stability, C#Cc1ccc2c(c1)C(c1ccccc1)=NCc1c(C(=O)OCC)ncn1-2 : 6.3%

Measured Stability, C#Cc1ccc2c(c1)C(c1ccccn1)=NCc1c(-c3nc(C)no3)ncn1-2 : 85%

Measured Stability, C#Cc1ccc2c(c1)C(c1ccccn1)=NCc1c(C(=O)O)ncn1-2 : 93%

###

Assay Procedure: Volume of distribution at steady state in femoral artery/vein cannulated Sprague-Dawley rat at 1 mg/kg, iv administered […] as single dose by LC-MS/MS analysis
Type: ADME, organism-based
Test Conditions: in vivo, read-out: Vdss
Measured Parameter: Vd
State the value with its unit after it.

Measured Vd, C#Cc1ccc2c(c1)C(c1ccccn1)=NCc1c(-c3cnco3)ncn1-2 : 1.4 L/kg

###

Test system: Mus musculus
Assay Procedure: Toxicity in Swiss mouse assessed as change in motor coordination by measuring number of falls from the rotating rod at 10 mg/kg, ip administered 30 mins prior to testing measured for 2 mins by rotarod test relative to control
Assay type: organism-based
Test Conditions: in vivo
Measured Parameter: Activity

{"Structure As Smiles": "C#Cc1ccc2c(c1)C(c1ccccn1)=NCc1c(-c3nc(C)no3)ncn1-2", "System Tested": "Mus musculus", "Value Reported": "Non-Toxic"}
{"Structure As Smiles": "C#Cc1ccc2c(c1)C(c1ccccn1)=NCc1c(C(=O)OCC)ncn1-2", "System Tested": "Mus musculus", "Value Reported": "Toxic"}
{"Structure As Smiles": "C#Cc1ccc2c(c1)C(c1ccccc1F)=NCc1c(-c3cnco3)ncn1-2", "System Tested": "Mus musculus", "Value Reported": "Non-Toxic"}
{"Structure As Smiles": "C#Cc1ccc2c(c1)C(c1ccccn1)=NCc1c(-c3cnco3)ncn1-2", "System Tested": "Mus musculus", "Value Reported": "Toxic"}

Measured Activity, C#Cc1ccc2c(c1)C(c1ccccn1)=NCc1c(-c3nc(CC)no3)ncn1-2 : Toxic

Measured Activity, C#Cc1ccc2c(c1)C(c1ccccc1)=NCc1c(-c3cnco3)ncn1-2 : Toxic

###

Assay Procedure: Cmax in femoral artery/vein cannulated Sprague-Dawley rat at 10 mg/kg, ip administered […] as single dose by LC-MS/MS analysis
Format: ADME, organism-based
Design: dose 10 mg/kg, route intraperitoneal
Test Conditions: in vivo
Measured Parameter: Cmax
State the value with its unit after it.

Measured Cmax, C#Cc1ccc2c(c1)C(c1ccccn1)=NCc1c(-c3cnco3)ncn1-2 : 3.09 µM

###

Assay Procedure: Total plasma concentration in Sprague-Dawley rat at 10 mg/kg, ip measured after 4 hrs
Type: ADME, organism-based
Measured Parameter: concentration at 4 h (nM)
The reply should contain only the number, in nM.

Measured concentration at 4 h, C#Cc1ccc2c(c1)C(c1ccccn1)=NCc1c(-c3cnco3)ncn1-2 : 2130

###

Item-by-item account of Stability
Test system: Liver
Assay Procedure: Metabolic stability in human liver microsomes assessed as compound remaining at 4 uM measured after 30 mins in presence of NADPH by LC-MS/MS analysis
Format: ADME, microsome
Test Conditions: 0.5 h
The reply should contain only the number, in %.

Past entries and their recorded results:
{"Structure As Smiles": "C#Cc1ccc2c(c1)C(c1ccccc1)=NCc1c(-c3cnco3)ncn1-2", "Value Reported": 74}
{"Structure As Smiles": "C#Cc1ccc2c(c1)C(c1ccccn1)=NCc1c(C(=O)OCC)ncn1-2", "Value Reported": 86}
{"Structure As Smiles": "C#Cc1ccc2c(c1)C(c1ccccn1)=NCc1c(-c3nc(CC)no3)ncn1-2", "Value Reported": 91}

Measured Stability, C#Cc1ccc2c(c1)C(c1ccccc1F)=NCc1c(C(=O)OCC)ncn1-2 : 6.1

Measured Stability, C#Cc1ccc2c(c1)C(c1ccccn1)=NCc1c(C(=O)O)ncn1-2 : 96

###

Item-by-item account of CC50 at 18 h
Assay Procedure: Cytotoxicity against HEK293T cells assessed as viable cells measured after 18 hrs by CellTiter-Glo assay
Assay type: cell-based, HEK-293T
Test Conditions: human, read-out: LD50

Past entries and their recorded results:
{"Structure As Smiles": "C#Cc1ccc2c(c1)C(c1ccccc1)=NCc1c(-c3cnco3)ncn1-2", "CC50 at 18 h": "66.8 µM"}
{"Structure As Smiles": "C#Cc1ccc2c(c1)C(c1ccccn1)=NCc1c(-c3nc(C)no3)ncn1-2", "CC50 at 18 h": "> 100 µM"}
{"Structure As Smiles": "C#Cc1ccc2c(c1)C(c1ccccn1)=NCc1c(-c3cnco3)ncn1-2", "CC50 at 18 h": "> 100 µM"}
{"Structure As Smiles": "C#Cc1ccc2c(c1)C(c1ccccc1F)=NCc1c(-c3cnco3)ncn1-2", "CC50 at 18 h": "61.5 µM"}
{"Structure As Smiles": "C#Cc1ccc2c(c1)C(c1ccccn1)=NCc1c(C(=O)OCC)ncn1-2", "CC50 at 18 h": "> 100 µM"}

From here, focus on the item given below.
Measured CC50 at 18 h, C#Cc1ccc2c(c1)C(c1ccccn1)=NCc1c(-c3nc(CC)no3)ncn1-2 : > 100 µM

###

System Tested: GABA-A receptor; alpha-1/beta-3/gamma-2 (Homo sapiens, UniProt P14867+P18507+P28472)
Sequence (P14867 whole entry): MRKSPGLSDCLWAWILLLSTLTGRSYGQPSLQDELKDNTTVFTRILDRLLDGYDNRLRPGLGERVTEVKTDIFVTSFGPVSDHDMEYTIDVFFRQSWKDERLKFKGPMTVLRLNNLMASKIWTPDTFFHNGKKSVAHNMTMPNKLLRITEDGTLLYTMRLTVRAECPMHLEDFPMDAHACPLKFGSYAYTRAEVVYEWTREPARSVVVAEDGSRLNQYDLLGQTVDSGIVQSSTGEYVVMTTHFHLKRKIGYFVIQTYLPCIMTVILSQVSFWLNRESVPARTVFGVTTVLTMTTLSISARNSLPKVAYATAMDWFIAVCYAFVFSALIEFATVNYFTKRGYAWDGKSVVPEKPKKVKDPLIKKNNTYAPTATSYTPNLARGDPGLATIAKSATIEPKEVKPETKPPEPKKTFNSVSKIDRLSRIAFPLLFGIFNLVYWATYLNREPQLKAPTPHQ
Sequence (P18507 whole entry): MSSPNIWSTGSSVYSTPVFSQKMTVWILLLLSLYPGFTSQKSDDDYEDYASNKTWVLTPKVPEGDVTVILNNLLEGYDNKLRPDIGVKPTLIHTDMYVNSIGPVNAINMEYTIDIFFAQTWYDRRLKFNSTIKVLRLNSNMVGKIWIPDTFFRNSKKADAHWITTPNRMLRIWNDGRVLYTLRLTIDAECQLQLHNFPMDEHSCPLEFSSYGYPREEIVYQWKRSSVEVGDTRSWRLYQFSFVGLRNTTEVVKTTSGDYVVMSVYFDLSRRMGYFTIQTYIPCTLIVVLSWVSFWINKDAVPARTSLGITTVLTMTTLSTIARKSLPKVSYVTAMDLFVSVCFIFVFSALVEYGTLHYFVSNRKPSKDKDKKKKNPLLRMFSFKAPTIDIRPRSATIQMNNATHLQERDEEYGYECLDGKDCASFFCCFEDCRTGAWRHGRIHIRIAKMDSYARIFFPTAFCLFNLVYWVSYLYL
Sequence (P28472 whole entry): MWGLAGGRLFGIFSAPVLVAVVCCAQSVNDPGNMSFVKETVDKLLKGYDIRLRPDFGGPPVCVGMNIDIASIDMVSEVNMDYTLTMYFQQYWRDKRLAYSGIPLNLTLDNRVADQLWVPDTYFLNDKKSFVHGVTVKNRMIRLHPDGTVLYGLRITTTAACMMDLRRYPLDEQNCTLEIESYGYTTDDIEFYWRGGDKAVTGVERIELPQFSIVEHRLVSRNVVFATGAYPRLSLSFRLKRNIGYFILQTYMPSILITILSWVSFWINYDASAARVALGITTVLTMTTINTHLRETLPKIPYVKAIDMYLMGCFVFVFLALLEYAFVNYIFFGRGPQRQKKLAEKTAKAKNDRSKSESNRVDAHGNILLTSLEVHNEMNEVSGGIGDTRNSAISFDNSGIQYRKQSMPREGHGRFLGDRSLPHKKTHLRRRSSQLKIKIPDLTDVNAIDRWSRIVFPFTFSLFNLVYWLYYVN
Assay Procedure: Modulation of recombinant human GABA alpha1beta3gamma2 receptor expressed in HEK293 cells assessed as change in GABA-induced current at -80 mV holding potential preincubated for 3 mins followed by co-administration of GABA by electrophysiology method
Format: cell-based
Measured Parameter: pEC50
# reply with the number alone; pEC50 is -log10 of concentration in mol/L

Measured pEC50, C#Cc1ccc2c(c1)C(c1ccccn1)=NCc1c(-c3cnco3)ncn1-2 : 6.31
